- TARGET_DESC: P-gp (MDR1 expressing LLC-PK1 cells) (Homo sapiens, UniProt P08183)
- Construct: host or cells: LLC-PK1
- Sequence (P08183 whole entry): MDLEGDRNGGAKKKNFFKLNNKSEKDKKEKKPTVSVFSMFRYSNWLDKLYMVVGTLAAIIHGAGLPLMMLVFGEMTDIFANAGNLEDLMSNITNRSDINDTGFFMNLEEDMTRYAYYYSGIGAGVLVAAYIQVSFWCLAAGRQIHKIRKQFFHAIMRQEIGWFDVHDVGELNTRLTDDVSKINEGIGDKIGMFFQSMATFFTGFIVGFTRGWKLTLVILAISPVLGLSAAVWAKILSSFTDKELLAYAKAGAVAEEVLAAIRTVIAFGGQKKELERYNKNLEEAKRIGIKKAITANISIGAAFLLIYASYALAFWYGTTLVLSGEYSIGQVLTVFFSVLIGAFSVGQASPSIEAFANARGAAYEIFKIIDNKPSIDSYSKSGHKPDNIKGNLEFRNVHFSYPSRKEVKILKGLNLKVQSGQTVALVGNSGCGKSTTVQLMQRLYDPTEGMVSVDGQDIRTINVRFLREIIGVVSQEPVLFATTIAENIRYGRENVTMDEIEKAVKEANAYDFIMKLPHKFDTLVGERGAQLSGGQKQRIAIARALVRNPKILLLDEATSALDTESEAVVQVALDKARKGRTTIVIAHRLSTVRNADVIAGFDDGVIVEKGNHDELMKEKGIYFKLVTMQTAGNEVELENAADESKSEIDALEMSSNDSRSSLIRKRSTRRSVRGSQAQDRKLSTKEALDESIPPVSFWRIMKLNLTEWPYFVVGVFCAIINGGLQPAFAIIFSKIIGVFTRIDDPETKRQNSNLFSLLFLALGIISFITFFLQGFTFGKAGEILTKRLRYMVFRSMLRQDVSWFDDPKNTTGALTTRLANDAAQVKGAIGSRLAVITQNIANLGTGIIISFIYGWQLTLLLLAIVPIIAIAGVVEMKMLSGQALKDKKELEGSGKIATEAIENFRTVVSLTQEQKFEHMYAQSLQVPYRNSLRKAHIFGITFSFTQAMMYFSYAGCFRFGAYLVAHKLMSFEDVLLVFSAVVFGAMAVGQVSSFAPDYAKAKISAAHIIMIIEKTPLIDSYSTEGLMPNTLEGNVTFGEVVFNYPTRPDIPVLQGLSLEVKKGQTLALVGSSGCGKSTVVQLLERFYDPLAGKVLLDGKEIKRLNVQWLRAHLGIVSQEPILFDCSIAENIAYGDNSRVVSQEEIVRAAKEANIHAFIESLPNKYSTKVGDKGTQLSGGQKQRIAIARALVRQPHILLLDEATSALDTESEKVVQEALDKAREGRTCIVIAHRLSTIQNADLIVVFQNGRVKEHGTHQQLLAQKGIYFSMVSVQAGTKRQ
- ASSAY_NOTES: P-gp substrate test
- Assay type: in vitro ADME
- ASSAY_CONTEXT: net flux = Efflux Ratio in MDR1 expressing cells / Efflux Ratio in parent LLC-PK1 cells
METRIC: ER ratio (Cell: MDR1/LLC-PK1)
Output: the number by itself.

Completed entries (count: 3):
C[C@H]1SC(N)=N[C@](C)(c2nc(NC(=O)c3ccc(C#N)cn3)ccc2F)[C@H]1F [Compound I-1] = 1.2
C[C@]1(c2cc(NC(=O)c3ccc(C#N)cn3)ccc2F)N=C(N)O[C@H]2[C@@H]1OCC2(F)F [Compound I-35] = 2.1
COc1cnc(C(=O)Nc2ccc(F)c([C@@]3(C)N=C(N)O[C@H](C(F)F)[C@@H]3C)c2)cn1 [Compound I-86] = 1.5

[Q] Fill blank: measured ER ratio (Cell: MDR1/LLC-PK1) of the molecule C[C@H]1SC(N)=N[C@](C)(c2cc(NC(=O)c3cnc(C(F)F)cn3)ccc2F)[C@H]1F [Compound I-65] is ____.
[A] 1.1

[Q] Also, C[C@]1(c2cc(NC(=O)c3cnc(OCF)cn3)ccc2F)N=C(N)S[C@H](CO)[C@@H]1F [Compound I-109] please.
[A] 8.5

[Q] Param item: CC(F)(F)[C@H]1OC(N)=N[C@](C)(c2cc(NC(=O)c3cnc(OCC(F)(F)F)cn3)ccc2F)[C@H]1F [Compound I-75]
[A] 0.8

[Q] # repeat for C[C@H]1SC(N)=N[C@](C)(c2cc(NC(=O)c3ccc(OCC(F)(F)F)cn3)ccc2F)[C@H]1F [Compound I-54]
[A] 1.9

[Q] Item: COc1ccc(C(=O)Nc2ccc(F)c([C@@]3(C)N=C(N)S[C@H](C)[C@@H]3F)c2)nc1 [Compound I-50]
[A] 1.1

[Q] Now the molecule Cc1cc(C#N)cnc1C(=O)Nc1ccc(F)c([C@@]2(C)N=C(N)SCC23CC(F)(F)C3)c1 [Compound I-60]
[A] 1.4

[Q] What do you have for C[C@]1(c2cc(NC(=O)c3ccc(C#N)cn3)ccc2F)N=C(N)SCC12CC(F)(F)C2 [Compound I-59] ?
[A] 1.2

[Q] Try this molecule next: C[C@]1(c2cc(NC(=O)c3cnc(OCF)cn3)ccc2F)N=C(N)O[C@H](C(F)(F)C2CC2)[C@@H]1F [Compound I-82]
[A] 0.96

[Q] Same question for CC(F)(F)[C@H]1OC(N)=N[C@](C)(c2cc(NC(=O)c3cnc(OCC(F)F)cn3)ccc2F)[C@H]1F [Compound I-77] please.
[A] 1.2

[Q] Ok, now CC(F)(F)[C@H]1OC(N)=N[C@](C)(c2cc(NC(=O)c3ccc(C#N)cn3)ccc2F)[C@H]1F [Compound I-40]
[A] 1.1

[Q] What do you have for COc1cnc(C(=O)Nc2ccc(F)c([C@@]3(C)N=C(N)S[C@H](C)[C@@H]3OC)c2)cn1 [Compound I-90] ?
[A] 3.1
